This collection of values is drawn from patent US5070210A.

# Test system: Cabbage Looper [Trichoplusia ni (Hubner)]
# RUN DESCRIPTION: Cabbage looper insecticidal test
# Type: in vivo
# MEASUREMENT CONTEXT: second-instar larvae, percent in solution; 3-5 days
Lab note: anything with LC50, CL below 0.002% is marked Satisfied; values at 0.002% or higher are marked Not satisfied.

[
  {
    "COMPOUND": "CC(C)C(=Nc1cccc(C(F)(F)F)c1)OCc1cccc(Oc2ccc(F)cc2)c1",
    "ANSWER LABEL": "Satisfied"
  }
]

Q) Quick check: does `CC(C)C(=Nc1ccc(Cl)c(OCC(F)(F)F)c1)OCc1ccc(F)c(Oc2ccc(Cl)cc2)c1` have LC50, CL under 0.002%?
A) Satisfied

Q) Is it true that LC50, CL reported for CC(C)C(=Nc1ccc(F)c(Cl)c1)OCc1cccc(Cc2ccccc2)c1 [Compound 537] is less than 0.002%?
A) Not satisfied

Q) Given `CCc1ccc(N=C(OCc2cccc(Oc3ccccc3)c2)C(C)(C)C)cc1` , is recorded LC50, CL strictly lower than 0.002%?
A) Not satisfied

Q) Below 0.002% on LC50, CL? Entry `CC(C)C(=Nc1cc(C(F)(F)F)cc(C(F)(F)F)c1)OCc1cccc(Oc2ccccc2)c1`
A) Not satisfied

Q) Does `Clc1cccc(N=C(OCc2cccc(Oc3ccccc3)c2)C(Cl)Cl)c1` have LC50, CL strictly under 0.002%?
A) Not satisfied

Q) Criterion: LC50, CL strictly below 0.002%. Is it met by `CC(C)C(=Nc1ccc(F)c(Br)c1)OCc1ccc(F)c(Oc2ccc(F)cc2)c1` ?
A) Satisfied

Q) hey, is LC50, CL for CC(C)C(=Nc1ccc(OC(F)(F)F)cc1)OCc1cccc(Cc2ccccc2)c1 [Compound 542] lower than 0.002% or not?
A) Not satisfied

* * *

# Tested on: Maize weevil [Sitophilus Zeamais (Motschulsky)]
# RUN DESCRIPTION: Maize weevil insecticidal test
# Type: in vivo
# MEASUREMENT CONTEXT: adult weevils, percent in solution; 48 hours
PROPERTY LABEL: LC50, MW

# annotated cases, reported LC50, MW shown
[
  {
    "SMILES STR": "CC(C)C(=Nc1ccc(OC(F)(F)F)cc1)OCc1ccc(F)c(Oc2ccc(F)c(F)c2)c1",
    "OBS VALUE": "> 0.01%"
  },
  {
    "SMILES STR": "CC(C)C(=Nc1ccc(F)c(Cl)c1F)OCc1cccc(Oc2ccc(F)cc2)n1",
    "OBS VALUE": "0.01%"
  },
  {
    "SMILES STR": "CC(C)C(=Nc1cccc(OC(F)(F)F)c1)OCc1ccc(F)c(Oc2ccc(Cl)cc2)c1",
    "OBS VALUE": "> 0.01%"
  }
]

State the recorded LC50, MW for every item in the following list.
1. Clc1ccc(N=C(OCc2cccc(Oc3ccccc3)c2)C2CCC2)cc1
2. C=C(C)C(=Nc1ccc(Cl)cc1)OCc1cccc(Oc2ccccc2)c1

A)
1. > 0.01%
2. > 0.01%

Each molecule below has a reported value. Please supply its LC50, MW.
1. CCOc1ccc(N=C(OCc2cccc(Oc3ccccc3)c2)C(Cl)Cl)cc1
2. C#CCc1c(F)c(F)c(COC(=Nc2ccc(F)c(Cl)c2)C(C)C)c(F)c1F

A)
> 0.01%
0.0042%

Q) Give recorded LC50, MW. `CC(C)C(=Nc1cccc(Br)c1)OCc1ccc(F)c(Oc2ccccc2)c1`
A) > 0.01%

* * *

# System: Maize weevil [Sitophilus Zeamais (Motschulsky)]
# RUN DESCRIPTION: Maize weevil insecticidal test
# Assay type: in vivo
# MEASUREMENT CONTEXT: adult weevils, percent in solution; 48 hours
PROPERTY LABEL: LC50, MW

Take a look at these entries with their results.
[
  {
    "MOLECULE": "C=C(C)C(=Nc1ccc(C(F)(F)F)cc1)OCc1cccc(Oc2ccc(Cl)cc2)n1",
    "PROPERTY LABEL": "LC50, MW",
    "OBS VALUE": "> 0.01%"
  },
  {
    "MOLECULE": "CC(C)C(=Nc1ccc(Br)c(Cl)c1)OCc1cccc(Oc2ccc(Cl)cc2)c1",
    "PROPERTY LABEL": "LC50, MW",
    "OBS VALUE": "> 0.01%"
  },
  {
    "MOLECULE": "CC(C)C(=Nc1ccc2c(c1)OC(F)(F)O2)OCc1ccc(F)c(Oc2ccc(F)cc2)c1",
    "PROPERTY LABEL": "LC50, MW",
    "OBS VALUE": "0.0075%"
  },
  {
    "MOLECULE": "CC(C)C(=Nc1ccc(C(F)(F)F)cc1)OCc1cccc(Oc2ccccc2)c1",
    "PROPERTY LABEL": "LC50, MW",
    "OBS VALUE": "> 0.01%"
  },
  {
    "MOLECULE": "CC(C)C(=Nc1ccc2c(c1)OC(F)(F)O2)OCc1cccc(Oc2ccc(Cl)cc2)c1",
    "PROPERTY LABEL": "LC50, MW",
    "OBS VALUE": "0.01%"
  }
]

Hello, I would appreciate it if you could give LC50, MW for each entry below.
1. CCc1ccc(N=C(OCc2ccc(F)c(Oc3ccccc3)c2)C(C)C)cc1
2. Cc1cccc(N=C(OCc2cccc(Oc3ccc(Cl)cc3)n2)C(C)C)c1
3. CC(C)C(=Nc1ccc(C(F)(F)F)cc1)OCc1cccc(Cc2ccccc2)c1 [Compound 535]

A)
> 0.01%
> 0.01%
> 0.01%

* * *

For each entry below, report its LC50, MW value.
# Tested on: Maize weevil [Sitophilus Zeamais (Motschulsky)]
# RUN DESCRIPTION: Maize weevil insecticidal test
# Assay type: in vivo
# MEASUREMENT CONTEXT: adult weevils, percent in solution; 48 hours

Take a look at these entries with their results.
[
  {
    "COMPOUND": "CC(C)C(=Nc1ccc(I)cc1)OCc1cccc(Oc2ccc(F)cc2)c1",
    "LC50, MW": "> 0.01%"
  },
  {
    "COMPOUND": "CC(C)C(=Nc1ccc(Br)cc1)OCc1ccc(F)c(Oc2ccc(Cl)cc2)c1",
    "LC50, MW": "> 0.01%"
  },
  {
    "COMPOUND": "CC(C)C(=Nc1ccc(Br)c(Cl)c1)OCc1ccc(F)c(Oc2ccc(Cl)cc2)c1",
    "LC50, MW": "> 0.01%"
  },
  {
    "COMPOUND": "CC(C)C(=Nc1ccc(OC(F)(F)C(F)Cl)cc1)OCc1cccc(Oc2ccccc2)c1 (centres unmarked)",
    "LC50, MW": "> 0.01%"
  },
  {
    "COMPOUND": "CCC(=Nc1ccc(F)c(F)c1)OCc1coc(Cc2ccccc2)c1",
    "LC50, MW": "> 0.01%"
  }
]

Would you mind listing LC50, MW for each of the following compounds?
1. CC(C)C(=Nc1ccc(Cl)c(C(F)(F)F)c1)OCc1ccc(F)c(Oc2ccc(F)cc2)c1
2. FC(F)(F)Oc1ccc(N=C(OCc2cccc(Oc3ccccc3)c2)C(Cl)Cl)cc1
3. CC(C)C(=Nc1cccc(Br)c1)OCc1cccc(Oc2ccc(Cl)cc2)n1
4. CC(C)C(=Nc1ccc2c(c1)OC(F)(F)O2)OCc1cccc(Oc2ccccc2)c1
5. CC(C)C(=Nc1ccc(C#N)cc1)OCc1ccc(F)c(Oc2ccc(Cl)cc2)c1
6. CC(C)C(=Nc1ccc(C(F)(F)F)cc1)OCc1cccc(Cc2ccccc2)c1 [Compound 543]
7. Fc1ccc(Oc2cccc(COC(=Nc3cccc(C(F)(F)F)c3)C3CC3)c2)cc1
8. CC(C)C(=Nc1cccc(I)c1)OCc1cccc(Oc2ccc(F)cc2)c1

A)
1: 0.0069%; 2: > 0.01%; 3: > 0.01%; 4: 0.006%; 5: > 0.01%; 6: > 0.01%; 7: > 0.01%; 8: > 0.01%

Parameters: items (list). Returns: LC50, MW for each item.
1. CC(C)C(=Nc1ccc(F)c(F)c1F)OCc1ccc(F)c(Oc2ccc(F)cc2)c1
2. CC(C)C(=Nc1ccc(F)c(Cl)c1)OCc1cccc(Oc2ccc(F)cc2F)c1
3. COc1ccc(N=C(OCc2ccc(F)c(Oc3ccccc3)c2)C(C)C)cc1F
4. CC(C)C(=Nc1ccc2c(c1)OCO2)OCc1coc(Cc2ccccc2)c1

A)
1: > 0.01%; 2: 0.004%; 3: > 0.01%; 4: > 0.01%

* * *

# System: Maize weevil [Sitophilus Zeamais (Motschulsky)]
# RUN DESCRIPTION: Maize weevil insecticidal test
# Type: in vivo
# MEASUREMENT CONTEXT: adult weevils, percent in solution; 48 hours
Returns: string. Value is satisfied if measured LC50, MW is below 0.006%, and not satisfied if it is greater than or equal to it.

These recorded examples may help you get a feel for the data.
[
  {
    "SMILES STR": "Cc1ccc(N=C(OCc2ccc(F)c(Oc3ccccc3)c2)C(C)C)cc1F",
    "ANSWER LABEL": "not satisfied"
  },
  {
    "SMILES STR": "CC(C)C(=Nc1ccc(Br)c(C(F)(F)F)c1)OCc1ccc(F)c(Oc2ccc(F)cc2)c1",
    "ANSWER LABEL": "not satisfied"
  },
  {
    "SMILES STR": "Cc1ccc(N=C(OCc2cccc(Oc3ccccc3)c2)C(C)C)cc1",
    "ANSWER LABEL": "not satisfied"
  },
  {
    "SMILES STR": "CC(C)C(=Nc1ccc(OCC(F)(F)F)cc1)OCc1ccc(F)c(Oc2ccccc2)c1",
    "ANSWER LABEL": "not satisfied"
  },
  {
    "SMILES STR": "CC(C)C(=Nc1ccc(F)c(F)c1)OCc1ccc(F)c(Oc2ccc(F)cc2)c1",
    "ANSWER LABEL": "not satisfied"
  },
  {
    "SMILES STR": "CC(C)C(=Nc1ccc(F)c(Cl)c1)OCc1cc(Oc2ccc(F)cc2)ccc1F",
    "ANSWER LABEL": "not satisfied"
  }
]

Q) Strictly below 0.006%: is that where LC50, MW of `Fc1ccc(N=C(OCc2cccc(Oc3ccccc3)c2)C(F)(F)C(F)(F)F)cc1Cl` sits?
A) not satisfied

Q) Dear colleague, could you confirm whether LC50, MW of `COCc1c(F)c(F)c(COC(=Nc2ccc(F)c(Cl)c2F)C(C)C)c(F)c1F` falls below 0.006%? Thanks.
A) not satisfied

Q) Consider `CC(C)C(=Nc1ccc2c(c1)OCO2)OCc1ccc(F)c(Oc2ccccc2)c1` . Does its LC50, MW lie strictly below 0.006%?
A) satisfied

Q) Regarding `CC(C)C(=Nc1ccc(Br)cc1)OCc1coc(Cc2ccccc2)c1` , kindly confirm whether its LC50, MW is beneath 0.006%.
A) not satisfied

Q) Decide: LC50, MW of `CC(C)C(=Nc1ccc(F)c(Br)c1)OCc1ccc(F)c(Oc2ccc(F)cc2)c1` strictly below 0.006%?
A) satisfied

Q) Regarding `CC(C)C(=Nc1ccc(F)c(Cl)c1F)OCc1ccc(F)c(Oc2ccc(Cl)cc2)c1` , kindly confirm whether its LC50, MW is beneath 0.006%.
A) satisfied

Q) State whether 0.006% exceeds LC50, MW recorded for `CCOc1ccc(N=C(OCc2ccc(F)c(Oc3ccccc3)c2)C(C)C)cc1Cl` .
A) not satisfied

Q) Please indicate whether the reported LC50, MW of `CC1(C)C(C(=Nc2ccc(F)c(Cl)c2)OCc2cccc(Oc3ccccc3)c2)C1(C)C` is strictly below 0.006%.
A) not satisfied

Q) I'd appreciate it if you could check whether `COc1ccc(N=C(OCc2ccc(F)c(Oc3ccccc3)c2)C(C)C)cc1Cl` has LC50, MW smaller than 0.006%.
A) not satisfied

Q) State whether 0.006% exceeds LC50, MW recorded for `CC(C)C(=Nc1ccc(OC(F)(F)F)cc1)OCc1ccc(F)c(Oc2ccc(F)cc2)c1` .
A) satisfied

Q) State whether 0.006% exceeds LC50, MW recorded for `CC(C)C(=Nc1ccc(F)c(Cl)c1)OCc1cccc(Oc2ccccc2)n1` .
A) not satisfied
